pIC50 listing for selected compounds.
- Target: AXL (Homo sapiens (Human), UniProt P30530)
- Sequence (P30530 26-894): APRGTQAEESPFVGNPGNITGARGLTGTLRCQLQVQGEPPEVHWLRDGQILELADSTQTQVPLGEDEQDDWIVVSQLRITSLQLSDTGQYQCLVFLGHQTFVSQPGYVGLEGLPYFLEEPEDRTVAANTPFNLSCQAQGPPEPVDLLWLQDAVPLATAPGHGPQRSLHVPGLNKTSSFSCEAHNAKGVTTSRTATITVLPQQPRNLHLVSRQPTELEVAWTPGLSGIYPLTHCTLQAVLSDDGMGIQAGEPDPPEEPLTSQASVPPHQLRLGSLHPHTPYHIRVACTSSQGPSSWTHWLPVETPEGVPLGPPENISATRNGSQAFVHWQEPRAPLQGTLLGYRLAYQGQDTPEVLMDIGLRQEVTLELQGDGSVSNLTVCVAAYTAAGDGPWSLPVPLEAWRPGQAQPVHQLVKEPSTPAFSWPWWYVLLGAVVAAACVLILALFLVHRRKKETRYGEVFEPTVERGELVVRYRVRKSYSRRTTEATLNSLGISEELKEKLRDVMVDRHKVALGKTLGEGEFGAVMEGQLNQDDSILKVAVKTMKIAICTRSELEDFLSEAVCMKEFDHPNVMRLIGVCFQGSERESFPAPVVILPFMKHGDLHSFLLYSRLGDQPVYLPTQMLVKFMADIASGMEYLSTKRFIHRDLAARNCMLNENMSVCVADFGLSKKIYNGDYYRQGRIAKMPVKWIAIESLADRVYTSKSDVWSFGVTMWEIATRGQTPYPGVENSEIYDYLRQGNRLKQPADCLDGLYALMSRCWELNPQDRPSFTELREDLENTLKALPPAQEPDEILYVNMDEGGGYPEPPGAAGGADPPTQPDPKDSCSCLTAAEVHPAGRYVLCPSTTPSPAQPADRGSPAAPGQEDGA
- Protocol notes: AXL autophosphorylation ELISA in A-172 cells
- Assay setup: cellular, Gas6-stimulated, phospho-AXL ELISA
pIC50: −log10 of the molar value.

COc1cc2ncnc(Oc3ccc(NC(=O)C4(C(=O)Nc5ccc(F)cc5)CC4)c(F)c3)c2nc1OC :: ≥ 8.00
COc1nc2c(Oc3ccc(NC(=O)C4(C(=O)Nc5ccc(F)cc5)CC4)cc3C)ncnc2cc1OCCCN1CCOCC1 :: 7.00 to 8.00
COCCOc1cc2ncnc(Oc3cc(F)c(NC(=O)C4(C(=O)Nc5ccc(F)cc5)CC4)cc3F)c2nc1OC :: ≥ 8.00
COc1cc2ncnc(Oc3ccc(NC(=O)C4(C(=O)Nc5ccc(F)cc5)CC4)cc3)c2cc1C(=O)NC[C@@H]1CCCN1 :: 7.00 to 8.00

Okay, now this compound:
For this compound ( "Cn1cc(-c2ccc3ncnc(Oc4ccc(NC(=O)C5(C(=O)Nc6ccc(F)cc6)CC5)cc4)c3c2)cn1" ), measured pIC50 is 6.52 to 7.00

----------
- Target: Met (Homo sapiens (Human))
- Protocol notes: Human Met kinase assay (33P radiometric, KinaseProfiler)
- Assay type: biochemical
- Assay setup: 10 μM ATP, read-out: c-Met IC50
pIC50: −log10 of the molar value.
pIC50 listing for selected compounds.

Recorded pIC50 for "COc1nc2c(Oc3ccc(NC(=O)C4(C(=O)Nc5ccc(F)cc5)CC4)cc3Cl)ncnc2cc1OCCCN1CCOCC1" on Met (Homo sapiens (Human)) was ≥ 8.00

----------
- Target: Mer (Homo sapiens (Human), UniProt Q12866)
- Sequence (Q12866 557-882): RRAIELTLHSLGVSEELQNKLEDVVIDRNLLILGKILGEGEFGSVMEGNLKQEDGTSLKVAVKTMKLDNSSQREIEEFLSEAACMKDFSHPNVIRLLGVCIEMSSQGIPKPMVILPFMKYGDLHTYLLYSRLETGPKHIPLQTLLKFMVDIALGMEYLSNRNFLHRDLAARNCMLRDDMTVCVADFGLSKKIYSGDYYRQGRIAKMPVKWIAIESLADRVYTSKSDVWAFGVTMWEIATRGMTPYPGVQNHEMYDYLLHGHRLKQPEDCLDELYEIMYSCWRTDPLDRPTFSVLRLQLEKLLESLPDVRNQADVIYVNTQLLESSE
- Protocol notes: Human Mer kinase assay (33P radiometric, KinaseProfiler)
- Type: biochemical
- Assay setup: 10 μM ATP
Experimental endpoint: IC50

Recorded IC50, per entry:
COc1cc2nccc(Oc3ccc(NC(=O)C4(C(=O)Nc5ccc(F)cc5)CC4)cc3Cl)c2nc1OC :: ≤ 0.01 µM
COc1cc2ncnc(Oc3ccc(NC(=O)C4(C(=O)Nc5ccc(F)cc5)CC4)cc3)c2cc1C(=O)NC[C@H]1CCCN1C(=O)OC(C)(C)C :: 0.01 to 0.1 µM
COc1cc2nccc(Oc3ccc(NC(=O)C4(C(=O)Nc5ccc(F)cc5)CC4)cc3F)c2nc1OC :: ≤ 0.01 µM
COc1cc2ncnc(Oc3ccc(NC(=O)C4(C(=O)Nc5ccc(F)cc5)CC4)cc3)c2cc1C(=O)NC1COC1 :: 0.01 to 0.1 µM
O=C(Nc1ccc(F)cc1)C1(C(=O)Nc2ccc(Oc3ncnc4cc(Br)cnc34)cc2)CC1 :: 0.1 to 1 µM

For this compound ( "N#Cc1ccc2ncnc(Oc3ccc(NC(=O)C4(C(=O)Nc5ccc(F)cc5)CC4)cc3)c2c1" ), measured IC50 is 0.1 to 1 µM

For this compound ( "Cc1cc2ncnc(Oc3ccc(NC(=O)C4(C(=O)Nc5ccc(F)cc5)CC4)cc3)c2nc1C" ), measured IC50 is 0.1 to 1 µM

For this compound ( "COc1cc2c(Oc3ccc(NC(=O)C4(C(=O)Nc5ccc(F)cc5)CC4)cc3)ncnc2cn1" ), measured IC50 is 0.01 to 0.1 µM

For this compound ( "COc1cc2ncnc(Oc3ccc(NC(=O)C4(C(=O)Nc5ccc(F)cc5)CC4)cc3)c2cn1" ), measured IC50 is 0.01 to 0.1 µM

----------
- Target: Human Axl (Homo sapiens (Human), UniProt P30530, Q764R)
- Sequence (P30530 473-894 Q764R): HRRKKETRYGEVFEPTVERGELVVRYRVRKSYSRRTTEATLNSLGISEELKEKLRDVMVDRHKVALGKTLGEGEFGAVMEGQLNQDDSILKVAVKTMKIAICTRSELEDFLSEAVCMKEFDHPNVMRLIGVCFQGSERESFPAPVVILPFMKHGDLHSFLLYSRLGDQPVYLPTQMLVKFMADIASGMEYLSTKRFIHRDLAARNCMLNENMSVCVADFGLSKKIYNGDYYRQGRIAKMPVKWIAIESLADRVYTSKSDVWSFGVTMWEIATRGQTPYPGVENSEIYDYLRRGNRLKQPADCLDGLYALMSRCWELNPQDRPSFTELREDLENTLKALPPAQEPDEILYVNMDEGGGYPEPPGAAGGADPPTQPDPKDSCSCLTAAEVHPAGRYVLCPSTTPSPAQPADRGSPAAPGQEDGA
- Protocol notes: Human AXL kinase assay (33P radiometric, KinaseProfiler)
- Assay setup: 10 μM ATP
pIC50: −log10 of the molar value.
Experimental endpoint: pIC50

Recorded pIC50, per entry:
COc1cc2ncnc(Oc3ccc(NC(=O)C4(C(=O)Nc5ccc(F)cc5)CC4)cc3F)c2nc1OC :: ≥ 8.00
O=C(Nc1ccc(F)cc1)C1(C(=O)Nc2ccc(Oc3ncnc4cc(Br)cnc34)cc2)CC1 :: 6.00 to 7.00
COc1nc2c(Oc3ccc(NC(=O)C4(C(=O)Nc5ccc(F)cc5)CC4)cc3)ncnc2cc1OCCCN1CCOCC1 :: 7.00 to 8.00

Recorded pIC50 for "COc1cc2ncnc(Oc3ccc(NC(=O)C4(C(=O)Nc5ccc(F)cc5)CC4)cc3)c2cc1C(N)=O" on Human Axl (Homo sapiens (Human), UniProt P30530, Q764R) was 7.00 to 8.00

Recorded pIC50 for "O=C(Nc1ccc(F)cc1)C1(C(=O)Nc2ccc(Oc3ncnc4cccnc34)cc2)CC1" on Human Axl (Homo sapiens (Human), UniProt P30530, Q764R) was < 6.00

Recorded pIC50 for "COc1cc2ncnc(Oc3ccc(NC(=O)C4(C(=O)Nc5ccc(F)cc5)CC4)cc3)c2cc1C(=O)NCCN1CCCC1" on Human Axl (Homo sapiens (Human), UniProt P30530, Q764R) was 7.00 to 8.00

Recorded pIC50 for "O=C(Nc1ccc(F)cc1)C1(C(=O)Nc2ccc(Oc3ncnc4cc(Cl)ncc34)cc2)CC1" on Human Axl (Homo sapiens (Human), UniProt P30530, Q764R) was 6.00 to 7.00

Recorded pIC50 for "COc1cc2ncnc(Oc3ccc(NC(=O)C4(C(=O)Nc5ccc(F)cc5)CC4)cc3)c2nc1OC" on Human Axl (Homo sapiens (Human), UniProt P30530, Q764R) was ≥ 8.00

Recorded pIC50 for "N#Cc1ccc2ncnc(Oc3ccc(NC(=O)C4(C(=O)Nc5ccc(F)cc5)CC4)cc3)c2c1" on Human Axl (Homo sapiens (Human), UniProt P30530, Q764R) was < 6.00

Recorded pIC50 for "O=C(Nc1ccc(F)cc1)C1(C(=O)Nc2ccc(Oc3ncnc4cnccc34)cc2)CC1" on Human Axl (Homo sapiens (Human), UniProt P30530, Q764R) was 6.00 to 7.00

Recorded pIC50 for "COc1cc2ncnc(Oc3ccc(NC(=O)C4(C(=O)Nc5ccc(F)cc5)CC4)cc3)c2cc1C(=O)NC1COC1" on Human Axl (Homo sapiens (Human), UniProt P30530, Q764R) was 7.00 to 8.00

Recorded pIC50 for "COc1cc2ncnc(Oc3ccc(NC(=O)C4(C(=O)Nc5ccc(F)cc5)CC4)cc3)c2nc1C#N" on Human Axl (Homo sapiens (Human), UniProt P30530, Q764R) was 6.00 to 7.00

Recorded pIC50 for "O=C(Nc1ccc(F)cc1)C1(C(=O)Nc2ccc(Oc3ncnc4cnc(Cl)cc34)cc2)CC1" on Human Axl (Homo sapiens (Human), UniProt P30530, Q764R) was 6.00 to 7.00

----------
- Target: AXL (Homo sapiens (Human), UniProt P30530)
- Protocol notes: AXL autophosphorylation ELISA in A-172 cells
- Assay setup: cellular, Gas6-stimulated, phospho-AXL ELISA
Experimental endpoint: IC50

COc1cc2nccc(Oc3cc(F)c(NC(=O)C4(C(=O)Nc5ccc(F)cc5)CC4)cc3F)c2nc1OC :: ≤ 0.01 µM
COc1cc2nccc(Oc3ccc(NC(=O)C4(C(=O)Nc5ccc(F)cc5)CC4)cc3)c2nc1-c1cn[nH]c1 :: > 0.3 µM
COc1cc2ncnc(Oc3ccc(NC(=O)C4(C(=O)Nc5ccc(F)cc5)CC4)cc3)c2cc1C(=O)NC1CC1 :: 0.1 to 0.3 µM

Recorded IC50 for "COc1cc2ncnc(Oc3ccc(NC(=O)C4(C(=O)Nc5ccc(F)cc5)CC4)cc3F)c2nc1OC" on AXL (Homo sapiens (Human), UniProt P30530) was ≤ 0.01 µM

Recorded IC50 for "COc1nc2c(Oc3ccc(NC(=O)C4(C(=O)Nc5ccc(F)cc5)CC4)c(F)c3F)ncnc2cc1OCCCN1CCOCC1" on AXL (Homo sapiens (Human), UniProt P30530) was ≤ 0.01 µM

----------
- Target: Met (Homo sapiens (Human))
- Protocol notes: Human Met kinase assay (33P radiometric, KinaseProfiler)
- Type: biochemical
- Assay setup: 10 μM ATP, read-out: c-Met IC50
Experimental endpoint: IC50

COc1cnc2c(Oc3ccc(NC(=O)C4(C(=O)Nc5ccc(F)cc5)CC4)cc3)ncnc2c1 :: 10 to 100 nM
COc1cc2ncnc(Oc3ccc(NC(=O)C4(C(=O)Nc5ccc(F)cc5)CC4)cc3F)c2nc1OC :: ≤ 10 nM
COc1cc2ncnc(Oc3ccc(NC(=O)C4(C(=O)Nc5ccc(F)cc5)CC4)cc3)c2nc1OC :: 10 to 100 nM

For this compound ( "COc1cc2ncnc(Oc3ccc(NC(=O)C4(C(=O)Nc5ccc(F)cc5)CC4)cc3)c2cc1C(N)=O" ), measured IC50 is 10 to 100 nM

For this compound ( "Cc1cc2ncnc(Oc3ccc(NC(=O)C4(C(=O)Nc5ccc(F)cc5)CC4)cc3)c2nc1C" ), measured IC50 is 100 to 1000 nM

For this compound ( "O=C(Nc1ccc(F)cc1)C1(C(=O)Nc2ccc(Oc3ncnc4cc(Br)cnc34)cc2)CC1" ), measured IC50 is 100 to 1000 nM
